- System: UO-31 renal
- method: NCI tumour cell line growth inhibition, 48 h
Quick reference for TGI among some compounds

{"compound": "O=C1C=CC2(O)OCC3C=C4O[C@@H]5OC6(CCCCC6)O[C@@H]5C4[C@@H]2[C@@H]13 (stereo not given in full)", "TGI": "37.3 µM"}
{"compound": "CC(=O)c1c(-c2ccc(Cl)cc2)c(C#N)c(=S)n(C2OC(CO)C(O)C(O)C2O)c1C (stereo not given)", "TGI": "6.92 µM"}

// CCOC(=O)CNC(=O)c1[nH]cnc1/N=N/N(C)C : TGI value = > 100 µM

Noted for O=C(O)[C@H]1NC[C@H]2C(Br)=NO[C@@H]12 : its TGI reads > 100 µM

Consider NC1=NC(c2ccccc2Cl)c2c(n[nH]c2N)N1 (stereo not given) . Its measured TGI is > 100 µM

# compound CCc1c(OC(C)=O)c2c(NC3OC(COC(C)=O)C(OC(C)=O)C(OC(C)=O)C3OC(C)=O)nc(SC)nc2oc1=O (stereo not given) ; its TGI = > 100 µM

---

Recorded GI50 by entry
- System: SK-MEL-2 melanoma
- method: NCI tumour cell line growth inhibition, 48 h

Some solved entries appear below for comparison.
{"smilesRecord": "Nc1nc(Cl)c2ncn(Cc3ccc(C45CC6CC(CC(C6)C4)C5)c(OCc4cc(F)c(F)cc4F)c3)c2n1", "GI50": "5.84 µM"}
{"smilesRecord": "CC(=O)Nc1cccc(C#Cc2cncnc2Nc2ccc(OCc3cccc(F)c3)c(Cl)c2)c1", "GI50": "6.43 µM"}
{"smilesRecord": "O=C(O)c1ccccc1NCn1nc(-c2ccccc2O)oc1=S", "GI50": "> 100 µM"}
{"smilesRecord": "O=C(Nc1ccc(-n2cc(-c3ccncc3)c(-c3ccc(O)c(Cl)c3)n2)cc1)Nc1cc(C(F)(F)F)cc(C(F)(F)F)c1", "GI50": "2.2 µM"}
{"smilesRecord": "CC[n+]1c(-c2ccccc2)c2cc(N)ccc2c2ccc(N)cc21", "GI50": "1.11 µM"}
{"smilesRecord": "Cc1ccccc1Nc1cc(O)c2c(=O)cc(-c3ccccc3)oc2c1", "GI50": "2.44 µM"}
{"smilesRecord": "COC(=O)c1ccc(NC(N)=NCCC(C)(C)c2ccc(C(F)(F)F)cc2)nc1", "GI50": "3.22 µM"}
{"smilesRecord": "O=C(Nc1nc2ccc(S(=O)(=O)Nc3ccc(C4(C(F)(F)F)CC4)cc3)cc2[nH]1)c1cnccn1", "GI50": "3.03 µM"}
{"smilesRecord": "O=c1[nH]c(=S)[nH]c(O)c1/C=C1\\C=Nc2ccccc21", "GI50": "19.5 µM"}
{"smilesRecord": "CCCCCCCCCCCCCC(=O)O[C@H]1CC[C@H](NC(=O)[C@H](OC)[C@H](O)[C@@H](O)[C@H](O)/C=C/C(C)C)C(=O)N(C)C1", "GI50": "0.0156 µM"}

So, CN(C)CCNC(=O)Nc1ccc(N(C)c2ccnc(Nc3ccc(CS(C)(=O)=O)cc3)n2)cc1 ? Its GI50 was > 25 µM

Memo: C#COc1cccc(Nc2ncnc3cc(NC(=O)[C@@H](C)Cl)ccc23)c1 , reported GI50: 5.24 µM

The compound listed as O=C(CI)NC(=O)NC(=O)NCc1ccccc1 has a reported GI50 of 7.5 µM
